Where do these numbers come from? They come from ChEMBL document CHEMBL1136376.

system: Escherichia coli; assay: Antibacterial activity against Escherichia coli; type: functional
Assignment: determine reported MIC for the given compounds.

Summary for this compound, CN(CCCn1cnc2cc(Cl)c(Cl)cc21)CCCn1cnc2cc(Cl)c(Cl)cc21 : MIC is 100 µM

Summary for this compound, CN(CCCn1c(N)nc2cc(C#N)ccc21)CCCn1c(N)nc2cc(C#N)ccc21 : MIC is > 100 µM

Summary for this compound, COC(=O)c1ccc2c(c1)nc(N)n2CCCN(C)CCCn1c(N)nc2cc(C(=O)OC)ccc21 : MIC is > 100 µM

Summary for this compound, CN(CCCn1c(N)nc2cc(Br)ccc21)CCCn1c(N)nc2cc(Br)ccc21 : MIC is > 100 µM

Summary for this compound, Nc1nc2cc(Cl)c(Cl)cc2n1CCCOCCCn1c(N)nc2cc(Cl)c(Cl)cc21 : MIC is > 100 µM

Summary for this compound, CN(CCCn1c(N)nc2cc(Cl)c(Cl)cc21)CCCn1c(N)nc2cc(Cl)c(Cl)cc21 : MIC is 6 µM

###

test system: Escherichia coli; experiment: Antibacterial activity against Escherichia coli; format: functional
Assignment: determine reported MIC for the given molecules.

The recorded MIC with Escherichia coli for CN(CCCNc1nc2cc(Cl)c(Cl)cc2[nH]1)CCCNc1nc2cc(Cl)c(Cl)cc2[nH]1 was 12 µM

The recorded MIC with Escherichia coli for Cc1ccc2nc(N)n(CCCN(C)CCCn3c(N)nc4ccc(C)cc43)c2c1 was > 100 µM

The recorded MIC with Escherichia coli for COc1ccc2nc(N)n(CCCN(C)CCCn3c(N)nc4ccc(OC)cc43)c2c1 was > 100 µM

The recorded MIC with Escherichia coli for CN(CCCn1c(N)nc2ccccc21)CCCn1c(N)nc2ccccc21 was 100 µM

The recorded MIC with Escherichia coli for CN(CCCn1c(N)nc2cc(Cl)ccc21)CCCn1c(N)nc2cc(Cl)ccc21 was 50 µM

The recorded MIC with Escherichia coli for CN(CCNc1nc2cc(Cl)c(Cl)cc2[nH]1)CCNc1nc2cc(Cl)c(Cl)cc2[nH]1 was 25 µM

The recorded MIC with Escherichia coli for CN(CCCn1c(N)nc2cc(C(F)(F)F)ccc21)CCCn1c(N)nc2cc(C(F)(F)F)ccc21 was 25 µM

The recorded MIC with Escherichia coli for CN(CCn1c(N)nc2cc(Cl)c(Cl)cc21)CCn1c(N)nc2cc(Cl)c(Cl)cc21 was 6 µM

The recorded MIC with Escherichia coli for Nc1nc2cc(Cl)c(Cl)cc2n1CCCCCCCn1c(N)nc2cc(Cl)c(Cl)cc21 was > 100 µM

###

system: Enterococcus faecalis; assay: Antibacterial activity against Enterococcus faecalis; type: functional
reported endpoint: MIC (µM)
Report the value in µM with no unit label.

Summary for this compound, CN(CCCNc1nc2cc(Cl)c(Cl)cc2[nH]1)CCCNc1nc2cc(Cl)c(Cl)cc2[nH]1 : MIC is 6

Summary for this compound, CN(CCCn1c(N)nc2cc(C(F)(F)F)ccc21)CCCn1c(N)nc2cc(C(F)(F)F)ccc21 : MIC is 25

Summary for this compound, CN(CCCn1c(N)nc2cc(Cl)c(Cl)cc21)CCCn1c(N)nc2cc(Cl)c(Cl)cc21 : MIC is 6

Summary for this compound, CN(CCNc1nc2cc(Cl)c(Cl)cc2[nH]1)CCNc1nc2cc(Cl)c(Cl)cc2[nH]1 : MIC is 1.5

Summary for this compound, CN(CCCn1c(N)nc2cc(Cl)ccc21)CCCn1c(N)nc2cc(Cl)ccc21 : MIC is 50
